System: FXR:RXRa (NR concentration 270 nM, RXRa partner concentration 90 nM)
PROCEDURE TEXT: PBM binding z-score (relative to random genomic background probes); higher = stronger binding; sequences stand for … in GC…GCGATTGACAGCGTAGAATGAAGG
READOUT NAME: PBM binding z-score

For orientation, consider the following solved cases.
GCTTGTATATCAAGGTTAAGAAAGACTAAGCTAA :: 0.268
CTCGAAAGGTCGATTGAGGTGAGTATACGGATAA :: 4.35
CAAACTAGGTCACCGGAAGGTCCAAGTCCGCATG :: 4.24

Task: Sample `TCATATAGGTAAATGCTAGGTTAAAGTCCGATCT` — what was its PBM binding z-score?
Result: 1.18

Task: Sample `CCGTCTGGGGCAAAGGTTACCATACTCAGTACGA` — what was its PBM binding z-score?
Result: 1.5

Task: Sample `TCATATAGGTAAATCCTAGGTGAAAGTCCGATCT` — what was its PBM binding z-score?
Result: 0.916

Task: Sample `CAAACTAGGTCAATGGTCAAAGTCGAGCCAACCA` — what was its PBM binding z-score?
Result: 3.39

Task: Sample `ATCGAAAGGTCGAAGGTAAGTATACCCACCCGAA` — what was its PBM binding z-score?
Result: 3.95

Task: Sample `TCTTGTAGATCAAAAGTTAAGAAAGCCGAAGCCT` — what was its PBM binding z-score?
Result: 0.493

---

# key: entry, value: PBM binding z-score
System: PXR homodimer (NR concentration 270 nM)
PROCEDURE TEXT: PBM binding z-score (relative to random genomic background probes); higher = stronger binding; sequences stand for … in GC…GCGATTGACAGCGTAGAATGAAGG
Lab note: record the figure alone, no unit after it.

For orientation, consider the following solved cases.
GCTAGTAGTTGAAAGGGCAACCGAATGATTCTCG :: -0.0187
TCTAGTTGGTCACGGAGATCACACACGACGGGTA :: 0.241
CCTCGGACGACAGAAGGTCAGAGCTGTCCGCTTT :: -0.144
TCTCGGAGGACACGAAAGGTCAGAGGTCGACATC :: 0.827
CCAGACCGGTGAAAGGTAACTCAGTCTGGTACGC :: -0.239
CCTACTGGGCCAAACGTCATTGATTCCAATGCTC :: -0.633

Task: Sample `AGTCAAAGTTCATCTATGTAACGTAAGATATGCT` — what was its PBM binding z-score?
Result: 5.26

Task: Sample `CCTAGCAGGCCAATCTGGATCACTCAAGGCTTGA` — what was its PBM binding z-score?
Result: -0.965

Task: Sample `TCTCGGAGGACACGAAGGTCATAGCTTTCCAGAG` — what was its PBM binding z-score?
Result: 3.5

Task: Sample `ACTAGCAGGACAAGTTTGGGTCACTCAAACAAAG` — what was its PBM binding z-score?
Result: -0.116

Task: Sample `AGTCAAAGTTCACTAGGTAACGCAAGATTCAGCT` — what was its PBM binding z-score?
Result: 2.6

Task: Sample `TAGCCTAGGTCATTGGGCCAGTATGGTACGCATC` — what was its PBM binding z-score?
Result: -0.75

Task: Sample `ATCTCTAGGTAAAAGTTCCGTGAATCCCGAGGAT` — what was its PBM binding z-score?
Result: 0.269

Task: Sample `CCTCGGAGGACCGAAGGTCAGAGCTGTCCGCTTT` — what was its PBM binding z-score?
Result: -0.615

Task: Sample `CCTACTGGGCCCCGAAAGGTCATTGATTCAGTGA` — what was its PBM binding z-score?
Result: 1.26

Task: Sample `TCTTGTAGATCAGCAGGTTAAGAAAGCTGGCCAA` — what was its PBM binding z-score?
Result: -0.284
